Reference for the values: the DeepSol protein solubility set

Assay: soluble on expression in E. coli; label from the status in PepcDB or PDB records
result type: soluble on expression in E. coli

primary sequence	result
GPGSMSAHDSSAMALIAHMNDIEQQRRVLSMSQREQEAKIAFTTAEKEQLVQAAKAAEAEEAQLKDDLEVLATEQQQLELQKMEATDRLRRTQAEEALHTAAVEADLQALAKEKVLWHERAQDLESLRRSWEEDAATSSCIAALRQESEMLAPLKAEKTAVEDALAETMAAIEKVRAEQQARLTCLGSVGAPADAVQRSGLARALASMHGSALSDGNTATVDDDDTAAALEEEIKRADYEAAQVTARHGRTIAVLQREVDALSTRAGELQQLLSSIGASWQEVLSRTRDLQHCKETGLCRRCLT	soluble
MGSDKIHHHHHHMSSRAFSTVAVTDAFFTLVAPVAKNSARIVIIVNSVSTGKNHPQMVALQQTVQQLGYAHVQLLDVLTDDLAALNTATVIILNGGYEFLLLKNLRETHVLERLRTLALAGKPIYGISAGAILLGPDLDLYVYLYPEDNTEQLASTTAINATTIRIYPHYDVHCEVKPQLPQLITDWEHKTGVTVKRLTNNQGLLVHGSQIQMIDSDS	not soluble
MHAGEAVQQLKKAFETVASFDFRDALSKASTPVTVVATNGPFGLAGLTCSAVCSVCDRPPTVLLCINRKSYAAGIIKSNGVLSVNWLAAGQAVISQTFAGVGSVPMEERFADKGWQTIATGAPYRMDAAVSFDCTIANIVDVGSHSVIFAEVVARNHAEECTPLIYHRRQYATTRSLAEHHHHHH	soluble
GCSDGGREALVAAQRYPDDFNGIIAGAPALNFQVQKTLYHGWMARSNIGPDGKPILLASRLPLLHKAVLAKCDVLDGQIDGLIADPRLCNFDPASVQCTSSVDTTNCLTQQEVAVVKRFYEGPKDPDSGERLTVGGPQPGSELGWAGVFVPITAEQTVYSEKAASEAIRNMVFENNPVAGFDLSTLRFDKSTFDKLRPLHPLYDATNPDLAPFASRGGKLILWHGWADPNVSPLNTLAYHEAVEAKLGKARTEAFESLYMLPGVYHCGAGEGPSVIDLLTPMMAWVESNHAPD	not soluble
KLSSSEKNAILNAVSWYDADAEKVVKGTTKLAGDKLKELLAYLGCKEKELGDYGYFATEKKGEYLEYETESNLRDTENVPLKEAIYTYFLREVKPHVGEAWINLDATKIGYEISFNKYFYKHKPLRSIEDVTADILALEKESDGLIAEILGL	not soluble
MAKEGSVAPKERINVTFKPATGGNQEEIELPLKLLAIGDYTHRRDERKVEDRKPISIDKTTFDEVLAKQELELTLSVPNRLQDEEGVAEELPVKLRVNSMKDFNPASLVEQVPELKKLMELRDALVALKGPLGNAPAFRKAIEGVLADDESRGRVLGELGLKAPAPDA	not soluble

* * *

Experiment: soluble on expression in E. coli; label from the status in PepcDB or PDB records

primary sequence	soluble on expression in E. coli
MSLDLKQVLRATMVKGVLQRGTIALGNDPGVLRIYTRAACPGTLAKNYLGEWCFASKVAEEASPRVHVVGDIHGNIEALFKVLIRTKLFILDEPMSNESYEGYEDPEEPFSVKGWGVHPRYAVEGTQKYIVKDYDHIYLFLGDYVDRGSFSIECLVVLLGLKILFPNAVYLLRGNHETRACLQRGQLFQELIHKYEYVEASKITDRLLRLFDALPTCALINDYVFAVHAGIYSKNASLADIEKYCTKRAPCSKFHTKAPYFDPLHNMLWADFVEDQPAIDLSQDNRRRNTGIVFYPSTVKEFLKNEGLGLFIRGHQSTPFGVSISQTGKLVTVSINSDSTPTWLGAVLTLVHPADADASESISPVNLASEGHHHHHH	not soluble
MNILLCCAAGMSSSLIVTKMEKAAEARGIEVKIWAVSGSEVNSHIDEADVLLLGPQVRYLLPKMKELCKGKGVPVDVIQSVHYGLCNGEAILQAALSMKP	not soluble
HQIGEDTYIVQGTMTLNDFNNYFDVELESDDVDTIAGYYLTGVGTIPTTEKLSYELVSQNKQFILTNDKVKNGRVTKVKVQITEVEIEEETE	not soluble
